# Test system: PSMA + PC-3 PiP and PSMA − PC-3 flu tumor xenografts
# test.context: 2 H post-injection
measurement.kind: Biodistribution: Sm int.

>  <compound>
N=C(N)NCc1ccc(C(=O)NCCCCC(NC(=O)CCCCCCC(=O)NCCCC[C@H](NC(=O)N[C@@H](CCC(=O)O)C(=O)O)C(=O)O)C(=O)O)cc1[211At] (some centres unmarked) [[^211At] labeled PSMA-904]

>  <result>
13.8 ± 10.9 % ID/g

$$$$
>  <compound>
O=C(O)CC[C@H](NC(=O)N[C@@H](CSCc1ccc([125I])cc1)C(=O)O)C(=O)O [[^125I] labeled DCIBC]

>  <result>
1.1 ± 0.2 % ID/g

$$$$
>  <compound>
O=C(O)CC[C@H](NC(=O)N[C@@H](CCC(=O)NCCc1ccc([211At])cc1)C(=O)O)C(=O)O [[^211At]HS-549]

>  <result>
3.81 ± 1.24 % ID/g

$$$$
>  <compound>
O=C(O)CC[C@H](NC(=O)N[C@@H](CCCCNC(=O)c1ccc([131I])cc1)C(=O)O)C(=O)O [[^131I]YC-I-27]

>  <result>
1.92 ± 0.55 % ID/g

$$$$

Biodistribution: Sm int. value, target or system PSMA + PC-3 PiP and PSMA − PC-3 flu tumor xenografts, for N=C(N)NCc1ccc(C(=O)NCCCC[C@H](NC(=O)N[C@@H](CCC(=O)O)C(=O)O)C(=O)O)cc1[131I] [[^131I] labeled 7 (PSMA-620)] : 2.29 ± 0.69 % ID/g

Just for reference, patent US20200231614A1 is where these values come from.
